Test: HILIC, Waters Atlantis Premier BEH Z-HILIC, 100 × 2.1 mm, 1.7 µm, 40 °C, 0.15 mL/min, estimated dead time 1.5 min; A: water + 20 mM ammonium carbonate + 5 µM medronic acid; B: 10% water + 90% acetonitrile + 2 mM ammonium carbonate + 0.5 µM medronic acid; gradient (min/%B) 0/90 18/55 18.1/20 21.5/20 22/90 23.5/90 25.5/90
Details: stereoisomer not certain
LC retention time strictly under 10 min means Met; at 10 min or over means Not met.

[[record]]
compound = "O=P(O)(O)OCC1OC(O)(COP(=O)(O)O)C(O)C1O (centres undefined) [Fructose-1,6-bisphosphate]"
class = "Not met"

[[record]]
compound = "O=C(O)C(CO)OP(=O)(O)O (centres undefined) [Phosphoglyceric acid A]"
class = "Not met"

[[record]]
compound = "NC(=O)c1ccc[n+](C2OC(COP(=O)(O)OP(=O)(O)OCC3OC(n4cnc5c(N)ncnc54)C(O)C3O)C(O)C2O)c1 (centres undefined) [NAD]"
class = "Met"

[[record]]
compound = "Nc1ncnc2c1ncn2C1OC(COP(=O)(O)O)C(O)C1O (centres undefined) [AMP]"
class = "Met"

[[record]]
compound = "O=C1CC(C(=O)O)NC(=O)N1 (centres undefined) [dihydroorotic acid]"
class = "Met"

[[record]]
compound = "Nc1ncnc2c1ncn2C1OC(COP(=O)(O)OP(=O)(O)OP(=O)(O)O)C(O)C1O (centres undefined) [ATP]"
class = "Not met"

[[record]]
compound = "O=C(O)CC(C(=O)O)C(O)C(=O)O (centres undefined) [Isocitric acid]"
class = "Not met"

[[record]]
compound = "Nc1ncnc2c1ncn2C1OC(COP(=O)(O)OP(=O)(O)O)C(O)C1O (centres undefined) [ADP]"
class = "Not met"


Reference for the values: the RepoRT retention time repository
